Origin of measurements: ChEMBL document CHEMBL1201862

Tested on: BT-549
Assay: NCI tumour cell line growth inhibition, 48 h
Calls of active or inactive are those of the source. No stated cut-off is given here; in the data, active = GI50 up to about 1.1 µM and inactive = higher.
experimental-readout: GI50

Some molecules with recorded GI50:
molecule | GI50
COc1cc(C2c3cc4c(cc3OC(N3CCCCC3)C2C)OCO4)cc(OC)c1O (stereo not drawn) | 10.5 µM (inactive)
CC(C)=C1C(=O)c2c(Cl)sc(Cl)c2C1=O | 22 µM (inactive)
CCCCCC(O)(CCCCC)CCCCCCCCC1=C(O)C(=O)c2ccccc2C1=O | 14.7 µM (inactive)
[O-][n+]1c(CN2CCCCC2)nc2cccc3c2c1-c1ccccc1-3 | 48.3 µM (inactive)
O=C(/C=C/c1ccccc1)C[C@@H](O)C[C@@H]1CC=CC(=O)O1 | 11.4 µM (inactive)

I'm hoping you can list GI50 for every molecule here, please.
1. COc1cc2c(cc1OC)C13CCN4CC5CCOC6CC(=O)N2C1C6C5CC43 (stereo not drawn)
2. O=C(/N=N/c1cc(Cl)ccc1Cl)NNc1cc(Cl)ccc1Cl
3. CCOC(=O)c1ccc(Nc2nc3ccccc3n3cccc23)cc1
4. COc1cc(O)c2c(=O)c(O)c(-c3ccc(O)c(OC)c3)oc2c1
5. CCN(CC)c1ccc2c(c1)OC(=O)C(c1nnc(-c3ccc([N+](=O)[O-])cc3)o1)C2 (stereo not drawn)
6. c1ccc2c(c1)NC(C1OC3CCCN3C1C1Nc3ccccc3S1)S2 (stereo not drawn)
7. O=C(CC(=O)Nc1cccc(C(=O)O)c1)Nc1cccc(C(=O)O)c1
8. CCOP1(=O)CC(C)=C(Cl)C(OC)C1 (stereo not drawn)

Response:
1. > 100 µM (inactive)
2. > 10 µM (inactive)
3. > 100 µM (inactive)
4. 2 µM (inactive)
5. > 100 µM (inactive)
6. 78.2 µM (inactive)
7. > 100 µM (inactive)
8. > 100 µM (inactive)

* * *

Test system: NCI-H23
Experiment: NCI tumour cell line growth inhibition, 48 h
Active and inactive are the calls of the source. Rule as the data show it: active = GI50 up to about 1.1 µM and inactive = higher.
For each entry below, report its GI50 value.

These solved cases illustrate the format of a correct answer.
compound | test-result
O=C(/N=N/c1cc(Cl)ccc1Cl)NNc1cc(Cl)ccc1Cl | 18.1 µM (inactive)
Cc1ccc(C2=C(c3ccccc3)C(Br)(c3ccccc3)C(c3ccccc3)=C2c2ccc(C)cc2)cc1 | > 100 µM (inactive)

Quick one: give me GI50 for each item below, same order please.
1. COC(=O)[C@]12CSC[C@H]1C[C@H](c1ccccc1OC)N2
2. CNS(=O)(=O)NN(C)S(=O)(=O)c1ccc(C)cc1
3. O=C(Nc1nn(C(=O)c2ccc(Cl)cc2)c(=O)s1)c1ccc(Cl)cc1

Response:
> 100 µM (inactive)
> 100 µM (inactive)
> 100 µM (inactive)
